# System: 596521-263-R-J1-PDC complex spheroids, viability % of control
# testDetails: Anticancer human tumor 596521-263-R-J1-PDC patient-derived soft tissue sarcoma cell line growth inhibition [GQUAD]
# cond: curve of first compound; second compound 0.316 µM
# Text: DNA G-quadruplex Stabilizer Agents in Combinations in Complex Spheroids A high-throughput screen of multi-cell type tumor spheroids was designed to identify active combinations of DNA G-quadruplex stabilizer agents and targeted small molecules. […] Compounds. […] If the clinical Cmax for an agent had not been determined, the highest concentration tested was 10 microM. […]
metricName: IC50

# compound, targetOrSystem, reportedResult
records = [
    ("CC1COCCN1c1cc(C2(S(C)(=N)=O)CC2)nc(-c2ccnc3[nH]ccc23)n1 (stereo not given) + Cc1cnc(CNC(=O)c2c(=O)c3ccc(N4CCCN(C)CC4)nc3n3c2sc2ccccc23)cn1", "596521-263-R-J1-PDC complex spheroids, viability % of control", "> 10 µM"),
    ("CC(=O)O[C@H]1C(=O)[C@@]2(C)[C@H]([C@H](OC(=O)c3ccccc3)[C@]3(O)C[C@H](OC(=O)[C@H](O)[C@@H](NC(=O)c4ccccc4)c4ccccc4)C(C)=C1C3(C)C)[C@]1(OC(C)=O)CO[C@@H]1C[C@@H]2O + CN(C)c1ccc(Nc2c3ccc(NC(=O)CCN4CCCC4)cc3nc3cc(NC(=O)CCN4CCCC4)ccc23)cc1", "596521-263-R-J1-PDC complex spheroids, viability % of control", "< 0.0316 µM"),
    ("COc1ncnc(C2CC2)c1-c1ncc2cnn(Cc3ccc(-c4nc(C(F)(F)F)cn4C(C)C)cc3)c2n1 + Cc1cnc(CNC(=O)c2c(=O)c3ccc(N4CCCN(C)CC4)nc3n3c2sc2ccccc23)cn1", "596521-263-R-J1-PDC complex spheroids, viability % of control", "> 10 µM"),
    ("O=C(c1cc(Cc2n[nH]c(=O)c3ccccc23)ccc1F)N1CCN(C(=O)C2CC2)CC1 + CN(C)c1ccc(Nc2c3ccc(NC(=O)CCN4CCCC4)cc3nc3cc(NC(=O)CCN4CCCC4)ccc23)cc1", "596521-263-R-J1-PDC complex spheroids, viability % of control", "> 10 µM"),
    ("CC1COCCN1c1cc(-c2ccnn2C)c2ccnc(-c3ccn[nH]3)c2n1 (stereo not given) + Cc1[nH]c2ccc(F)cc2c1-c1nc2c3cccnc3c3ncccc3c2[nH]1", "596521-263-R-J1-PDC complex spheroids, viability % of control", "0.317 µM"),
]

---

# Tested on: 596521-263-R-J1-PDC complex spheroids, viability % of control
# testDetails: Anticancer human tumor 596521-263-R-J1-PDC cell line growth inhibition [GQUAD];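 note: spheroids exposed to drugs for 7 days before viability reading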;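 for viability, T/C: 100% = DMSO vehicle control viability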
# cond: second compound 0.0316 µM; first compound 0.0316 µM; stronger effect = lower value

# compound, targetOrSystem, unitsSymbol, viability, T/C
data = [
    ("CC1COCCN1c1cc(C2(S(C)(=N)=O)CC2)nc(-c2ccnc3[nH]ccc23)n1 (stereo unspecified) + Cc1cnc(CNC(=O)c2c(=O)c3ccc(N4CCCN(C)CC4)nc3n3c2sc2ccccc23)cn1", "596521-263-R-J1-PDC complex spheroids, viability % of control", "%", 91.2),
    ("C=CC(=O)N1CCN(c2nc(=O)n(-c3c(C)ccnc3C(C)C)c3nc(-c4c(O)cccc4F)c(F)cc23)C(C)C1 (stereo unspecified) + Cc1[nH]c2ccc(F)cc2c1-c1nc2c3cccnc3c3ncccc3c2[nH]1", "596521-263-R-J1-PDC complex spheroids, viability % of control", "%", 91.6),
    ("CCc1c2c(nc3ccc(O)cc13)-c1cc3c(c(=O)n1C2)COC(=O)[C@]3(O)CC + Cc1cnc(CNC(=O)c2c(=O)c3ccc(N4CCCN(C)CC4)nc3n3c2sc2ccccc23)cn1", "596521-263-R-J1-PDC complex spheroids, viability % of control", "%", 40),
    ("COc1ccc([C@@H](O)c2cc(-c3ncnc4cc(N5CCOCC5)ccc34)c(F)cc2Cl)nn1 + CN(C)c1ccc(Nc2c3ccc(NC(=O)CCN4CCCC4)cc3nc3cc(NC(=O)CCN4CCCC4)ccc23)cc1", "596521-263-R-J1-PDC complex spheroids, viability % of control", "%", 95.1),
    ("COc1ncnc(C2CC2)c1-c1ncc2cnn(Cc3ccc(-c4nc(C(F)(F)F)cn4C(C)C)cc3)c2n1 + CN(C)c1ccc(Nc2c3ccc(NC(=O)CCN4CCCC4)cc3nc3cc(NC(=O)CCN4CCCC4)ccc23)cc1", "596521-263-R-J1-PDC complex spheroids, viability % of control", "%", 94.8),
    ("CC1COCCN1c1cc(-c2ccnn2C)c2ccnc(-c3ccn[nH]3)c2n1 (stereo unspecified) + CN(C)c1ccc(Nc2c3ccc(NC(=O)CCN4CCCC4)cc3nc3cc(NC(=O)CCN4CCCC4)ccc23)cc1", "596521-263-R-J1-PDC complex spheroids, viability % of control", "%", 69.3),
    ("CC[C@@]1(O)C(=O)OCc2c1cc1n(c2=O)Cc2cc3c(CN(C)C)c(O)ccc3nc2-1 + Cc1[nH]c2ccc(F)cc2c1-c1nc2c3cccnc3c3ncccc3c2[nH]1", "596521-263-R-J1-PDC complex spheroids, viability % of control", "%", 69.5),
    ("Cc1cccc(N(C)C(=O)C2C(O)CCN2c2nc(C)cc(C(F)(F)F)c2C#N)c1 (stereo unspecified) + CN(C)c1ccc(Nc2c3ccc(NC(=O)CCN4CCCC4)cc3nc3cc(NC(=O)CCN4CCCC4)ccc23)cc1", "596521-263-R-J1-PDC complex spheroids, viability % of control", "%", 108),
    ("Cc1[nH]c2ccccc2c1CCNCc1ccc(/C=C/C(=O)NO)cc1 + CN(C)c1ccc(Nc2c3ccc(NC(=O)CCN4CCCC4)cc3nc3cc(NC(=O)CCN4CCCC4)ccc23)cc1", "596521-263-R-J1-PDC complex spheroids, viability % of control", "%", 58.1),
    ("COc1cc(C2c3cc4c(cc3C(OC3OC5COC(C)OC5C(O)C3O)C3COC(=O)C23)OCO4)cc(OC)c1O (stereo unspecified) + CN(C)c1ccc(Nc2c3ccc(NC(=O)CCN4CCCC4)cc3nc3cc(NC(=O)CCN4CCCC4)ccc23)cc1", "596521-263-R-J1-PDC complex spheroids, viability % of control", "%", 101),
    ("CC[C@@]1(O)C(=O)OCc2c1cc1n(c2=O)Cc2cc3c(CN(C)C)c(O)ccc3nc2-1 + CN(C)c1ccc(Nc2c3ccc(NC(=O)CCN4CCCC4)cc3nc3cc(NC(=O)CCN4CCCC4)ccc23)cc1", "596521-263-R-J1-PDC complex spheroids, viability % of control", "%", 62.4),
    ("Cc1cccc(N(C)C(=O)C2C(O)CCN2c2nc(C)cc(C(F)(F)F)c2C#N)c1 (stereo unspecified) + Cc1cnc(CNC(=O)c2c(=O)c3ccc(N4CCCN(C)CC4)nc3n3c2sc2ccccc23)cn1", "596521-263-R-J1-PDC complex spheroids, viability % of control", "%", 123),
    ("O=c1[nH]cc(F)c(=O)[nH]1 + Cc1cnc(CNC(=O)c2c(=O)c3ccc(N4CCCN(C)CC4)nc3n3c2sc2ccccc23)cn1", "596521-263-R-J1-PDC complex spheroids, viability % of control", "%", 109),
    ("Cc1cccc(N(C)C(=O)C2C(O)CCN2c2nc(C)cc(C(F)(F)F)c2C#N)c1 (stereo unspecified) + Cc1[nH]c2ccc(F)cc2c1-c1nc2c3cccnc3c3ncccc3c2[nH]1", "596521-263-R-J1-PDC complex spheroids, viability % of control", "%", 106),
    ("CCCS(=O)(=O)Nc1ccc(F)c(C(=O)c2c[nH]c3ncc(-c4ccc(Cl)cc4)cc23)c1F + Cc1[nH]c2ccc(F)cc2c1-c1nc2c3cccnc3c3ncccc3c2[nH]1", "596521-263-R-J1-PDC complex spheroids, viability % of control", "%", 107),
    ("CC[C@@]1(O)C(=O)OCc2c1cc1n(c2=O)Cc2cc3c(CN(C)C)c(O)ccc3nc2-1 + Cc1cnc(CNC(=O)c2c(=O)c3ccc(N4CCCN(C)CC4)nc3n3c2sc2ccccc23)cn1", "596521-263-R-J1-PDC complex spheroids, viability % of control", "%", 66.5),
    ("Nc1ccn(C2OC(CO)C(O)C2(F)F)c(=O)n1 (stereo unspecified) + Cc1[nH]c2ccc(F)cc2c1-c1nc2c3cccnc3c3ncccc3c2[nH]1", "596521-263-R-J1-PDC complex spheroids, viability % of control", "%", 54.6),
    ("CC(=O)O[C@H]1C(=O)[C@@]2(C)[C@H]([C@H](OC(=O)c3ccccc3)[C@]3(O)C[C@H](OC(=O)[C@H](O)[C@@H](NC(=O)c4ccccc4)c4ccccc4)C(C)=C1C3(C)C)[C@]1(OC(C)=O)CO[C@@H]1C[C@@H]2O + Cc1cnc(CNC(=O)c2c(=O)c3ccc(N4CCCN(C)CC4)nc3n3c2sc2ccccc23)cn1", "596521-263-R-J1-PDC complex spheroids, viability % of control", "%", 44),
    ("O=c1[nH]cc(F)c(=O)[nH]1 + Cc1[nH]c2ccc(F)cc2c1-c1nc2c3cccnc3c3ncccc3c2[nH]1", "596521-263-R-J1-PDC complex spheroids, viability % of control", "%", 98.4),
    ("CC(C)(O)C1CCC(Nc2ccc3ncc(-c4cccc(C(F)(F)F)c4)n3n2)CC1 (stereo unspecified) + Cc1[nH]c2ccc(F)cc2c1-c1nc2c3cccnc3c3ncccc3c2[nH]1", "596521-263-R-J1-PDC complex spheroids, viability % of control", "%", 98.3),
    ("COc1ccc([C@@H](O)c2cc(-c3ncnc4cc(N5CCOCC5)ccc34)c(F)cc2Cl)nn1 + Cc1cnc(CNC(=O)c2c(=O)c3ccc(N4CCCN(C)CC4)nc3n3c2sc2ccccc23)cn1", "596521-263-R-J1-PDC complex spheroids, viability % of control", "%", 99.7),
]
